The reported measurements were obtained from patent US20140187615.

- target-desc: T1, phospholamban (PLN), pentameric (UniProt P61015 P61015:1-52)
- T1 sequence: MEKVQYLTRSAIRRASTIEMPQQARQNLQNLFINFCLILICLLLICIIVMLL
- assay-name: FP; ACE Kd 24 ± 5 nM; MOPS, 0.1% C12E8, 1 mM MgCl2, 5 mM CaCl2, pH 7.0
- condition-description: chain copies: 5 (stated pentameric); label: 5'-FAM
pKd: −log10 of the molar value.
recorded-metric: pKd

| binder | recorded-metric | reported-value |
| --- | --- | --- |
| ACTGAGCATGGGATAACCGTTCTCAGACTT (ssDNA) [ssDNA 30-mer] | pKd | 7.68 |
